Test system: L1210
Test: Antitumor activity against mouse L1210 cells
Format: functional, cell-based
Response field label takes T when IC50 is strictly below 0.02 µg/mL and F in all other cases.

Worked set:
C=C1/C=C(\C)[C@@H](C)[C@@H](O)CC(=O)[C@@H](C)CC(=O)C[C@H]2CC[C@@H](O2)[C@H](/C=C/C=C(\C)[C@@H](O)C(=C)CCCC)OC(=O)C[C@@H]2O[C@H](C[C@H]2C)[C@H](O)[C@@H]1O [AMPHIDINOLIDE C] ... T
CCCCCCCCCCCCCC/C=C/C(O)C(=O)N[C@@H](CO)[C@H](O)CCCCCCCCCCCCCCC (stereo not given in full) [SYMBIORAMIDE] ... F

Consider the compound C=C1C/C=C/[C@H](O)[C@@H](O)C(=C)[C@@H](O)[C@H](O)C(=C)C/C=C/C(C)=C/C(=O)O[C@H]([C@@H]2O[C@H]2[C@@H](C)CCC)[C@@H](C)C1 [AMPHIDINOLIDE A] . Is its IC50 strictly less than 0.02 µg/mL?
F

Is IC50 strictly under 0.02 µg/mL for the entry C=C1/C=C(\C)[C@](C)(O)C[C@H](O)CC(=O)[C@@H](O)[C@@H](O)[C@H](C)C[C@H](C)OC(=O)/C(C)=C/CC/C=C/[C@@H]2O[C@H]2C[C@H](C)C1 [AMPHIDINOLIDE D] ?
T

IC50 strictly < 0.02 µg/mL for this compound? C=C1/C=C(\C)[C@](C)(O)C[C@H](O)CC(=O)[C@H](O)[C@@H](O)[C@H](C)C[C@H](C)OC(=O)/C(C)=C/CC/C=C/[C@@H]2O[C@H]2C[C@H](C)C1 [AMPHIDINOLIDE B]
T
